Tested on: IL1-induced NFκB activity
assay-procedure: HEK-BlueIL1β NFκB Reporter Assay
Format: cell-based
cond: nM range, read-out: IC50, inhibition of IL1-induced NFκB activity
Measured IC50 values are reported for all entries that follow.

- molecule: "74804_12A21B: anti-IL1RAP mAb; VH SEQ ID NO:6, VL SEQ ID NO:23, κ light chain (antibody, V domains shown, 74804_12A21B VH and 74804_29D13A VH; 74804_12A21B VL) VH: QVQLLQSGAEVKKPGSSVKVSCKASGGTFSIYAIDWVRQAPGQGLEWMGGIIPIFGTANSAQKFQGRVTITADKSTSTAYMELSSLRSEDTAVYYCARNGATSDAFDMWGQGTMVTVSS VL: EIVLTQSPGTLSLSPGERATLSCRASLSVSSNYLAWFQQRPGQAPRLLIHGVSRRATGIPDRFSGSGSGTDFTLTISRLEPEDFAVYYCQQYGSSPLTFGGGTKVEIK"
  IC50, nM: 1.31
- molecule: "74804_29D13A: anti-IL1RAP mAb; VH SEQ ID NO:6, VL SEQ ID NO:22, κ light chain (antibody, V domains shown, 74804_12A21B VH and 74804_29D13A VH; 74804_07K10A VL, 74804_29D13A VL and 74804_43F04A VL) VH: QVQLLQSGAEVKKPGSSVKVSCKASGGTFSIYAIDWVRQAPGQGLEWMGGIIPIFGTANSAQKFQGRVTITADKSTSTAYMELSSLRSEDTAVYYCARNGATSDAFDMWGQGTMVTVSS VL: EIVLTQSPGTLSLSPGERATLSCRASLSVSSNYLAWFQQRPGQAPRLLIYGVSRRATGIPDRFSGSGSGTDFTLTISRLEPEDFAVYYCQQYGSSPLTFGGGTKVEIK"
  IC50, nM: 1.85
